# tgt: T1, monkey GPC3-His protein (monkey)
# T1 construct: Bought protein; also called monkey GPC3 protein
# method: ELISA, monkey GPC3-His coated; antibody 66.66 nM
measuredEndpoint: OD450 nm
Would you mind answering with just the numeric figure?

binder	OD450 nm
hAb001H2L1 (antibody, human IgG1, V domains shown, Humanized F2.169.2, H2+L1) VH: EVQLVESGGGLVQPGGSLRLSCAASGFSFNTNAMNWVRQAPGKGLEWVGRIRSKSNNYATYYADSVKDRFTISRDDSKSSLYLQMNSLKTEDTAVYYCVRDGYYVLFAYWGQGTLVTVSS VL: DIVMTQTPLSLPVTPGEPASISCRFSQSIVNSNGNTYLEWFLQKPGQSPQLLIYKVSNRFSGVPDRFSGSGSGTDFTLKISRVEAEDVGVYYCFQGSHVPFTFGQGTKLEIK	2.68
hAb006LH3L1b (antibody, human IgG1, V domains shown, Humanized F3.38.7, H3+L1b) VH: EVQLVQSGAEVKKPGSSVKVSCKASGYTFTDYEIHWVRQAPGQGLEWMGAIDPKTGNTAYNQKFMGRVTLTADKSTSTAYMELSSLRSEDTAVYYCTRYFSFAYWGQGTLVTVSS VL: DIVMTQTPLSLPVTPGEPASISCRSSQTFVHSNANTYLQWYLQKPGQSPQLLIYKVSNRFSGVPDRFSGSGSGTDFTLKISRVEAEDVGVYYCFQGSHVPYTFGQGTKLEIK	2.67

Prompt: Which OD450 nm is listed for hAb007LH2L1b (antibody, human IgG1, V domains shown, Humanized F3.81.19, H2+L1b) VH: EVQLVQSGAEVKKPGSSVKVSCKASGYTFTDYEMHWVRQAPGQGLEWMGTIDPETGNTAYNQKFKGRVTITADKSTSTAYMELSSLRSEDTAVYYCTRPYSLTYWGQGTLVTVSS VL: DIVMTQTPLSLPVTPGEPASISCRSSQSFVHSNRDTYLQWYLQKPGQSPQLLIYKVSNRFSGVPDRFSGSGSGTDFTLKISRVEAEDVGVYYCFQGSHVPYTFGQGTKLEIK ?
Completion: 2.61

Source of measurements: patent US20260116991A1
